endpointLabel: melting point

Below, each entry is followed by its recorded melting point result.
compound	melting point
Clc1ccc2c3c(cnc2c1)OCCN3	219 to 220 °C
COc1cc(N=CN(C)C)c(Cl)cc1C(=O)NC1CN2CCC1CC2 (centres undefined)	178 to 180 °C
C1=C(CCCc2ccccc2)CCN(Cc2nc3ccccc3[nH]2)C1	131 to 132 °C
NC1=NC2CCCc3cccc(c32)N1 (centres undefined)	230 to 232 °C
CCOC(=O)c1c(SCC)cc(C(F)(F)F)nc1C(F)(F)F	36 to 37.5 °C
CN(N=C(Cl)c1c(Cl)cccc1Cl)S(=O)(=O)c1ccccc1	103 to 104 °C
O=C1N[C@H](Cc2ccc(C(F)(F)F)cc2)[C@H](c2ccc(Oc3ccccc3)cc2)O1 (racemic)	110 to 111 °C
CCOC(=O)[C@@H]1C[C@H]2C[C@H](COCC#N)CC[C@H]2CN1C(=O)OC (racemic)	263 °C
COc1cccc2c1CC(N(CCCc1c[nH]c3ccc(F)cc13)CC1CCC1)CO2 (centres undefined)	115 °C
CC(C)NC1=NS(=O)(=O)c2c(Cl)cc(Cl)cc2N1	291 to 293 °C

Output melting point of O=C1COCC2=C1C(c1ccc(F)c(Br)c1)C1=C(COC1=O)N2 (centres undefined) 166 to 168 °C

Answer with the recorded melting point of Nc1nc(-c2ccc(NC(=O)CN(Cc3ccccc3)S(=O)(=O)N3CCOCC3)cc2)cs1 only. 193 to 194 °C

Supply reported melting point belonging to this compound: CCC(OCC(F)(F)F)c1ccc(Cl)c2nc3n(c12)CCCN3c1ccc(OC)nc1C (centres undefined) 124 to 126 °C

Give melting point for CCCc1nc2c(N)nc3cc(OCc4ccc(Cl)cc4)ccc3c2n1CC(C)C 215 to 217 °C
